- Test system: NOMO1
- protocol_summary: cell viability relative to DMSO control; higher = less cytotoxic
- condition_parameters: RPMI 5 mM glucose + 10% dialyzed FBS; 48 h; 5.12 µM
observation_type: cell viability (%)
Please respond with the number in % and leave the unit unwritten.

For the compound shown here, `N#C[C@H](O[C@@H]1O[C@H](CO[C@@H]2O[C@H](CO)[C@@H](O)[C@H](O)[C@H]2O)[C@@H](O)[C@H](O)[C@H]1O)c1ccccc1` , give the reported cell viability.
98.1

Also `COc1cc(C(=O)NS(=O)(=O)c2ccccc2C)ccc1Cc1cn(C)c2ccc(NC(=O)OC3CCCC3)cc12` ?
86.1

Also Cc1ncc([N+](=O)[O-])n1CC(C)O (centres undefined) ?
115

Also `CCOC(=O)\C1=C\[C@@H](OC(CC)CC)[C@H](NC(C)=O)[C@@H](N)C1` ?
99.3

Also `OC1=CC2=C(C(=C1)O)C(=O)\C(=C(/O2)C3=CC(=C(O)C=C3)O)O` ?
107

Also `CCN1CCN(C(=O)Cc2ccc(Nc3ncc(F)c(Nc4ccc(C(=O)Nc5ccccc5Cl)cc4)n3)cc2)CC1` ?
64.9

Also `NC/1=N/C(=O)N(/C=N1)[C@@H]2O[C@H](CO)[C@@H](O)[C@H]2O` ?
72.6

Also `C[C@]12CC[C@H]3[C@@H](CCC/4=C/C(=O)CC[C@]34C)[C@@H]1CC[C@@H]2OC(=O)CCC5CCCC5` ?
116

Also `NC(=O)NO` ?
33

Also CCN1CCCC1CNC(=O)c1cc([S+](N)(=O)[O-])ccc1OC (centres undefined) ?
122

Also `N#C/N=C(\NCCCCCCOc1ccc(Cl)cc1)Nc1ccncc1` ?
7.27

Also `N[S+](=O)([O-])OC[C@@H]1C[C@@H](n2ccc3c(N[C@H]4CCc5ccccc54)ncnc32)C[C@@H]1O` ?
18.5

Also `C[C@H]1COC/2=C1/C(=O)C(=O)C3=C4CCCC(C)(C)C4=CC=C23` ?
141

Also `OC[C@H]1O[C@@H]2[C@@H](OC\3=N\C(=N)\C=C/[N@@]23)[C@@H]1O` ?
23.3

Also `N=C1N[C@H]2[C@H](CS[C@H]2CCCCC(=O)O)N1` ?
119

Also `OCCn1cc(-c2cnc3nnn(Cc4ccc5ncccc5c4)c3n2)cn1` ?
86.8

Also CC(O)C1C2C(C)\C(=C(/N2C1=O)C(O)=O)SC3CNC(C3)C(=O)N(C)C (centres undefined) ?
82.6

Also `C[S+](=O)([O-])c1ccc(Oc2cc(F)cc(C#N)c2)c2c1[C@H](O)C(F)(F)C2` ?
117

Also `Cn1cc(C[C@@H](N)C(=O)O)c2ccccc21` ?
93.3

---

Answer each item with its documented cell viability.
- Tested on: P12-Ichikawa
- protocol_summary: cell viability relative to DMSO control; higher = less cytotoxic
- condition_parameters: RPMI 5 mM glucose + 10% dialyzed FBS; 48 h; 0.19 µM
Please respond with the number in % and leave the unit unwritten.

For the compound shown here, `CO/N=C(\C(=O)N[C@@H]1C(=O)N2C(C(=O)OCOC(=O)C(C)(C)C)=C(/C=C\c3scnc3C)CS[C@H]12)c1csc(N)n1` , give the reported cell viability.
106

Also `CN(C)CCN1C(=O)c2cccc3cc(N)cc(c23)C1=O` ?
130

Also `COC1=CC=C2/C3=N/CCN3\C(=N/C2=C1OC)NC(=O)C4=CC=CN=C4` ?
117

Also `Cc1c[nH]c(-c2cnc(NCCNc3ccc(C#N)cn3)nc2-c2ccc(Cl)cc2Cl)n1` ?
82.2

Also `Cn1cc(C[C@@H](N)C(=O)O)c2ccccc21` ?
106

Also `CN1CCN(C(=O)O[C@H]2c3nccnc3C(=O)N2c2ccc(Cl)cn2)CC1` ?
102

Also `NC/1=N/C(=O)N(/C=N1)[C@@H]2O[C@H](CO)[C@@H](O)[C@H]2O` ?
103

Also `NC(=O)NO` ?
96

Also `CC(C)C[C@H](NC(=O)[C@@H](O)[C@H](N)Cc1ccccc1)C(=O)O` ?
111

Also `Nc1nc(Cl)nc2c1ncn2[C@@H]1O[C@H](CO)[C@@H](O)[C@@H]1F` ?
24.6

Also Cc1ncc([N+](=O)[O-])n1CC(C)O (stereo unspecified) ?
112

Also `N#C[C@H](O[C@@H]1O[C@H](CO[C@@H]2O[C@H](CO)[C@@H](O)[C@H](O)[C@H]2O)[C@@H](O)[C@H](O)[C@H]1O)c1ccccc1` ?
86.1

Also `O=C(/C=C/c1ccc(O)cc1)c1ccc(O)cc1O` ?
113

Also `COc1cccc2c1[C@]13CCN(CC4CC4)[C@H](C2)[C@]1(OC)CCC(=O)C3` ?
127

Also `CC(C)Oc1ccc(C(=O)N[C@H](CNC(=O)CN(C)C)Cc2ccc(-c3cn4cccc([C@H](C)O)c4n3)cc2)cc1Cl` ?
101

Also CN(C)C1=C(Br)C=C(C=C1)C\2NC3=C(\C4=C2C(=O)CC(C)(C)C4)C5=CC=CC=C5C=C3 (stereo unspecified) ?
109

---

- System: NOMO1
- protocol_summary: cell viability relative to DMSO control; higher = less cytotoxic
- condition_parameters: RPMI 5 mM glucose + 10% dialyzed FBS; 48 h; 0.19 µM
observation_type: cell viability

For the compound shown here, `OC[C@H]1O[C@@H](Oc2cc(O)cc(/C=C/c3ccc(O)cc3)c2)[C@H](O)[C@@H](O)[C@@H]1O` , give the reported cell viability.
108%

Also Cc1noc(-c2ccc(CSCCC(=O)O)cc2)c1NC(=O)OC(C)c1ccccc1Cl (stereo not given) ?
92.2%

Also `N#C[C@H](O[C@@H]1O[C@H](CO[C@@H]2O[C@H](CO)[C@@H](O)[C@H](O)[C@H]2O)[C@@H](O)[C@H](O)[C@H]1O)c1ccccc1` ?
96.2%

Also `C[C@H]1COC/2=C1/C(=O)C(=O)C3=C4CCCC(C)(C)C4=CC=C23` ?
129%

Also `CNC(=O)[C@H](CC/1=C/N=C\2/C=C\C\C=C12)NC(=O)[C@H](CC(C)C)CC(=O)NO` ?
113%

Also `COc1ncc(-c2ccc3c(Nc4cc(Oc5cc(F)cc(F)c5)cc(C(=O)O)c4)c([S+](=O)([O-])NC4CC4)cnc3c2)c(OC)n1` ?
102%

Also `N=C1N[C@H]2[C@H](CS[C@H]2CCCCC(=O)O)N1` ?
135%

Also `CO/N=C(\C(=O)N[C@@H]1C(=O)N2C(C(=O)OCOC(=O)C(C)(C)C)=C(/C=C\c3scnc3C)CS[C@H]12)c1csc(N)n1` ?
83.9%

Also `O=C1NC(=O)/C(=C/c2ccc(-c3ccc(F)cc3O)o2)S1` ?
116%

Also `CCOC(=O)/C=C/[C@H](C[C@@H]1CCNC1=O)NC(=O)[C@@H](CC(=O)[C@@H](NC(=O)c1cc(C)on1)C(C)C)Cc1ccc(F)cc1` ?
118%

Also `C1CCN2C[C@H]3C[C@H](\C=C/4CCCN[C@@H]34)[C@H]2C1` ?
108%

Also `CN(C)CCN1C(=O)c2cccc3cc(N)cc(c23)C1=O` ?
118%

Also `COC1=CC=C2CN(C)CC[C@@]34\C=C/[C@H](O)C[C@@H]3OC1=C24` ?
129%

Also `Cc1nc(Nc2n[nH]c3c2CN(C(=O)N[C@H](CN(C)C)c2ccccc2)C3(C)C)c2sccc2n1` ?
58%

Also `O=C(Nc1cccnn1)N1CCC(=Cc2cccc(Oc3ccc(C(F)(F)F)cn3)c2)CC1` ?
97.4%

---

- Test system: SEM cells
- protocol_summary: cell viability relative to DMSO control; higher = less cytotoxic
- condition_parameters: HPLM + 10% dialyzed FBS; 48 h; 0.19 µM
observation_type: cell viability (%)
Please respond with the number in % and leave the unit unwritten.

For the compound shown here, CNC(=O)N1\N=C(\C2=CC=C(N)C=C2)C3=CC4=C(OCO4)C=C3CC1C (stereo not given) , give the reported cell viability.
133

Also `C[S+](=O)([O-])c1ccc(Oc2cc(F)cc(C#N)c2)c2c1[C@H](O)C(F)(F)C2` ?
105

Also `N=C1N[C@H]2[C@H](CS[C@H]2CCCCC(=O)O)N1` ?
108

Also `O=C(O)CC/C=C\CC[C@@H]1[C@@H](N2CCCCC2)[C@@H](O)C[C@@H]1OCc1ccc(-c2ccccc2)cc1` ?
123

Also `O=[S+]([O-])(c1cccc2cnccc12)N1CCCNCC1` ?
127

Also `CC(C)OC1=CC=C2C(=C1)O\C=C(/C2=O)C3=CC=CC=C3` ?
123

Also `COc1ncc(-c2ccc3c(Nc4cc(Oc5cc(F)cc(F)c5)cc(C(=O)O)c4)c([S+](=O)([O-])NC4CC4)cnc3c2)c(OC)n1` ?
79.4

Also `C[C@@]1(C(=O)Nc2ccc(F)nc2)CCCN1c1nc(Nc2cc(C3CC3)[nH]n2)c2cccn2n1` ?
98.8

Also `COc1cc(/C=C/C(=O)O)ccc1O` ?
90.1

Also COc1cccc2c1CCCC2CCCN1CCN(C2CCCCC2)CC1 (stereo not given) ?
110
